PROTOCOL_SUMMARY: qHTS Assay for Inhibitors of the HIV-1 protein Vpr; further: nearly all actives have a fitted effect of over 50% in size
TEST_CONTEXT: S. pombe RE007 Vpr strain, BacTiter-Glo ATP luminescence, 24 h; series mostly up to 92.2 µM
Among all 360,000 compounds or so, about 750 (0.21%) were called active. Roughly 2% stayed inconclusive and do not appear here. The call rests on the fitted dose curve; in most records, active means well fitted falling curve with a large enough effect; inconclusive means small, poorly fitted or top-dose-only effect; inactive means no such curve, though single readings can be large or run the other way. The list comes from a sample in which actives are over-represented; it also holds close analogues and randomly drawn compounds.
Permitted responses: class 1 for active, class 0 for inactive

Reference set (6 entries):
[[record]]
molecule = "O=C1CSC(=S)N1/N=C/c1ccc(O)c([N+](=O)[O-])c1"
class_assignment = "class 1"

[[record]]
molecule = "O=P(c1ccc2c(c1)OCCO2)(N1CCOCC1)N1CCOCC1"
class_assignment = "class 0"

[[record]]
molecule = "CC(C)C(c1nnnn1C1CCCCC1)N1CCN(C(=O)c2ccco2)CC1 (stereo unspecified)"
class_assignment = "class 0"

[[record]]
molecule = "Nc1nonc1-n1nnc(C(=O)N/N=C/c2ccc(Cl)cc2)c1-c1ccc2c(c1)OCO2"
class_assignment = "class 0"

[[record]]
molecule = "COc1cccc(CN2CCNC(=O)C2CC(=O)N(C)CCc2ccccn2)c1 (stereo unspecified)"
class_assignment = "class 0"

[[record]]
molecule = "CC(Oc1ccc(F)cc1)C(=O)Nc1cc(S(=O)(=O)N2CCOCC2)ccc1N1CCN(C)CC1 (stereo unspecified)"
class_assignment = "class 0"


Query block: Please indicate how the test categorized O=C(CC1OC(=O)c2ccccc21)NC1CCCCC1 (stereo unspecified) .
Result block: class 0

Query block: Please indicate how the test categorized Cn1c(=O)cc(OCCCC(=O)N2CCN(c3ccccn3)CC2)c2ccccc21 .
Result block: class 0

Query block: Please indicate how the test categorized Cc1nonc1C(=O)N/N=C/c1ccc(O)cc1 .
Result block: class 1

Query block: Please indicate how the test categorized COc1ccc(C(O)C(O)(C(=O)OC(C)C)c2ccc(C)cc2)cc1 (stereo unspecified) .
Result block: class 0

Query block: Please indicate how the test categorized NNc1cccc(C=Cc2ccccc2)cc1=O .
Result block: class 1

###

PROTOCOL_SUMMARY: qHTS Assay for Inhibitors of the HIV-1 protein Vpr; further: nearly all actives have a fitted effect of over 50% in size
TEST_CONTEXT: S. pombe RE007 Vpr strain, BacTiter-Glo ATP luminescence, 24 h; series mostly up to 92.2 µM
In all, about 360,000 compounds went through this assay and about 750 (0.21%) were called active. Inconclusive results (about 2%) are left out. Calls come from the whole dose curve; as a rule, active = well fitted falling curve with a large enough effect; inconclusive = small, poorly fitted or top-dose-only effect; inactive = no such curve, though single readings can be large or run the other way. The sample holds actives, similar compounds and a random draw of the others, so the mix is not that of the screen.
Permitted responses: T = active, F = inactive

Reference set (8 entries):
[[record]]
compound = "COc1ccc(CCN(C)C(=O)C23CC4CC(CC(Cl)(C4)C2)C3)cc1OC"
class_assignment = "F"

[[record]]
compound = "C[C@H](NC(=O)c1ccccc1Cl)C(=O)OCC(=O)N1CCN(c2ccccc2)CC1"
class_assignment = "F"

[[record]]
compound = "COC(=O)[C@@H]1C[C@@]2(O)[C@H](O)[C@H](O)[C@H](O)C[C@H]2N1Cc1ccc(C)s1"
class_assignment = "F"

[[record]]
compound = "O=C(OCC(=O)N1CCN(c2ccccc2)CC1)c1ccc([N+](=O)[O-])s1"
class_assignment = "T"

[[record]]
compound = "NC(=O)COC(=O)c1sc2cc(F)ccc2c1Cl"
class_assignment = "T"

[[record]]
compound = "O=S(=O)(NCCS(=O)(=O)N1CCN(c2ccccc2)CC1)c1ccc(F)cc1"
class_assignment = "F"

[[record]]
compound = "CC(NC(=O)COC(=O)C1CCN(S(=O)(=O)c2ccccc2C(F)(F)F)CC1)c1ccccc1 (stereo not given)"
class_assignment = "F"

[[record]]
compound = "Cc1ccc(S(=O)(=O)N(c2cccc(C)c2)C2CCS(=O)(=O)C2)cc1 (stereo not given)"
class_assignment = "F"


Query block: Please indicate how the test categorized Cc1ccc2c(Cl)c(C(=O)Nc3nn[nH]n3)sc2c1 .
Result block: F

Query block: Please indicate how the test categorized O=C(N/C(=C/c1ccc(Cl)cc1)C(=O)N1CCCCC1)c1ccco1 .
Result block: F

###

PROTOCOL_SUMMARY: qHTS Assay for Inhibitors of the HIV-1 protein Vpr; further: nearly all actives have a fitted effect of over 50% in size
TEST_CONTEXT: S. pombe RE007 Vpr strain, BacTiter-Glo ATP luminescence, 24 h; series mostly up to 92.2 µM
Out of some 360,000 compounds screened, about 750 (0.21%) were called active. Not shown: some 2% with an inconclusive outcome. The call rests on the fitted dose curve; in most records, active means well fitted falling curve with a large enough effect; inconclusive means small, poorly fitted or top-dose-only effect; inactive means no such curve, though single readings can be large or run the other way. Only a selection was taken, and actives are over-represented in it overall.
Permitted responses: class 1 = active, class 0 = inactive

Reference set (5 entries):
[[record]]
compound = "FC(F)(F)C1CCCN(c2nsc3ccccc23)C1 (stereo not given)"
class_assignment = "class 1"

[[record]]
compound = "CCC(C)c1ccccc1N1CC(C(=O)N2CCN(S(=O)(=O)c3ccc(F)cc3)CC2)CC1=O (stereo not given)"
class_assignment = "class 0"

[[record]]
compound = "CCCNC(=O)c1ccccc1NC(=O)CSCc1ccc(OC)cc1"
class_assignment = "class 0"

[[record]]
compound = "Cc1ccc(S(=O)(=O)N(CC(=O)Nc2cccnc2)c2ccc(Br)cc2)cc1"
class_assignment = "class 0"

[[record]]
compound = "CCc1nc2c(OCCOc3ccccc3)cccn2c1N(C=O)Cc1ccc(OC)cc1"
class_assignment = "class 0"


Query block: Please indicate how the test categorized COc1ccc(C(=O)Nc2ccccc2C(=O)N/N=C/c2ccccc2OC)cc1 .
Result block: class 1

Query block: Please indicate how the test categorized COc1cc(/C=N/NC(=O)Nc2ccccc2)ccc1OCCOc1ccccc1C .
Result block: class 0

Query block: Please indicate how the test categorized CCc1ccc2oc(-c3ccc(N)cc3)nc2c1 .
Result block: class 1

Query block: Please indicate how the test categorized O=C(Cn1cc(C(F)(F)F)ccc1=O)Nc1ccc2c(c1)OCCO2 .
Result block: class 0

Query block: Please indicate how the test categorized Cc1cc(C)c2c(n1)sc1c(=O)n(-c3ccccc3)c(=O)[nH]c12 .
Result block: class 0

Query block: Please indicate how the test categorized COc1ccc(C(=O)Nc2ccccc2C(=O)N/N=C/c2ccc(O)c(OC)c2)cc1 .
Result block: class 1

Query block: Please indicate how the test categorized CCOC(=O)c1sc(C)c2c1NC(C)(c1cccc3ccccc13)NC2=O (stereo not given) .
Result block: class 0

###

PROTOCOL_SUMMARY: qHTS Assay for Inhibitors of the HIV-1 protein Vpr; further: nearly all actives have a fitted effect of over 50% in size
TEST_CONTEXT: S. pombe RE007 Vpr strain, BacTiter-Glo ATP luminescence, 24 h; series mostly up to 92.2 µM
In all, about 360,000 compounds went through this assay and about 750 (0.21%) were called active. Inconclusive results (about 2%) are left out. The full list was thinned out, with actives kept by preference.
MEASURED_PARAMETER: outcome

[[record]]
compound = "CCC1=C(OC(=O)N(CC)CC)N2C(=O)OC(=NCCc3c[nH]c4ccccc34)[C@]2(C)[C@H]2C1=CC[C@H]1C(=O)N(CC)C(=O)[C@H]12"
data_value = "inactive"

[[record]]
compound = "NC(=O)Nc1ccccc1C(=O)NCCc1ccccc1"
data_value = "inactive"

[[record]]
compound = "Cc1cccc(C(=O)NCc2nnc(SC(C)C(=O)Nc3nnc(C)s3)n2C)c1 (stereo not drawn)"
data_value = "inactive"


###

PROTOCOL_SUMMARY: qHTS Assay for Inhibitors of the HIV-1 protein Vpr; further: nearly all actives have a fitted effect of over 50% in size
TEST_CONTEXT: S. pombe RE007 Vpr strain, BacTiter-Glo ATP luminescence, 24 h; series mostly up to 92.2 µM
Hit rate of the full screen: of about 360,000 compounds, about 750 (0.21%) were called active. About 2% were inconclusive and are not listed. The sample as a whole holds a higher share of actives than the screen did.
MEASURED_PARAMETER: outcome

[[record]]
chem_smiles = "O=C(NCC1CCCCC1)c1cc(S(=O)(=O)N2CCCCC2)ccc1N1CCOCC1"
data_value = "inactive"

[[record]]
chem_smiles = "CCN(CC)S(=O)(=O)c1ccc(Cl)c(C(=O)NCCN2CCOCC2)c1"
data_value = "inactive"

[[record]]
chem_smiles = "COc1cccc(C(=O)N/N=C(\\C)c2cccc(NC(=O)c3ccc(F)cc3)c2)c1OC"
data_value = "inactive"

